Each recorded value in this set is attributed to patent US9340554B2.

- Target under test: IRAK4 (Homo sapiens)
- Construct: purchased CARNA Bioscience 09-145
- Sequence (Q9NWZ3 whole entry): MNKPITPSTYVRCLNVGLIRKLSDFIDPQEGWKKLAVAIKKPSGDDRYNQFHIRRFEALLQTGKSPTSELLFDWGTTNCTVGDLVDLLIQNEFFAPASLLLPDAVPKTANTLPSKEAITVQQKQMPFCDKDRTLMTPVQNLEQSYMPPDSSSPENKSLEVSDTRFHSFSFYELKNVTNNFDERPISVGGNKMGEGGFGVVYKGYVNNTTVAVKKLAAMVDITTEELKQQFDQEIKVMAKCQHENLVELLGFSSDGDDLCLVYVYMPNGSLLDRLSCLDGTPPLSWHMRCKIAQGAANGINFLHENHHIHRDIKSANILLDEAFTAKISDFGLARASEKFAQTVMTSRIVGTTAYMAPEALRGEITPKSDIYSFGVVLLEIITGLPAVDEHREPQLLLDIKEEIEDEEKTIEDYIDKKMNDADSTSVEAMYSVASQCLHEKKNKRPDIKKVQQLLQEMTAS
- Protocol summary: IRAK-4 activity inhibition assay (Caliper, Peptide 8, 37 μM ATP)
- Assay type: biochemical
- Experimental conditions: 3.5 nM IRAK4, 1.5 μM Peptide 8, 37 μM ATP, 28° C. 40 minutes; read-out: IRAK-4 activity inhibition IC50
pIC50: −log10 of the molar value.
The following molecules are shown together with reported pIC50 values.

| Molecule | pIC50 |
| --- | --- |
| CN(C)[C@H]1CC[C@H](Oc2ncnc3sc4c(c23)CCC4)CC1 | > 5.30 |
| CN(C)CC1CC(Oc2ncnc3sc4c(c23)CCC4)C1 (centres unmarked) | 4.70 to 5.30 |
| c1nc(OCCN2CCNCC2)c2c3c(sc2n1)CCC3 | 4.30 to 4.70 |
| CN(Cc1cccnc1)[C@H]1CC[C@H](Nc2ncnc3sc4c(c23)CCC4)CC1 | > 5.30 |
| c1nc(NCCN2CCNCC2)c2c3c(sc2n1)CCC3 | < 4.30 |
